- target_desc: Human immunodeficiency virus type 1 reverse transcriptase (Human immunodeficiency virus 1)
- method: Inhibition of HIV1 reverse transcriptase polymerase using deoxynucleotide triphosphates and 18 nucleotide DNA primer annealed to 100 nucleotide DNA template after 30 mins
pIC50: −log10 of the molar value.
Exercise: state measured pIC50 for each of the molecules provided.

Completed entries (count: 5):
{"molecule": "CCOCn1c(C(C#N)c2cc(C)cc(C)c2)cc(=O)n(O)c1=O (stereo unspecified)", "target_desc": "Human immunodeficiency virus type 1 reverse transcriptase (Human immunodeficiency virus 1)", "assay_endpoint": "pIC50", "result": "< 5.00"}
{"molecule": "CCOCn1c(C(=O)c2ccc(-c3ccccc3)cc2)cc(=O)n(O)c1=O", "target_desc": "Human immunodeficiency virus type 1 reverse transcriptase (Human immunodeficiency virus 1)", "assay_endpoint": "pIC50", "result": "< 5.00"}
{"molecule": "O=C(c1cccc(-c2ccccc2)c1)c1cc(=O)n(O)c(=O)[nH]1", "target_desc": "Human immunodeficiency virus type 1 reverse transcriptase (Human immunodeficiency virus 1)", "assay_endpoint": "pIC50", "result": "< 5.00"}
{"molecule": "N#Cc1ccc(-c2ccc(C(=O)c3cc(=O)n(O)c(=O)[nH]3)cc2)cc1", "target_desc": "Human immunodeficiency virus type 1 reverse transcriptase (Human immunodeficiency virus 1)", "assay_endpoint": "pIC50", "result": 5.11}
{"molecule": "COC(=O)c1ccc(C(=O)c2cc(=O)n(O)c(=O)[nH]2)cc1", "target_desc": "Human immunodeficiency virus type 1 reverse transcriptase (Human immunodeficiency virus 1)", "assay_endpoint": "pIC50", "result": "< 5.00"}

Fill in pIC50 for each of the 3 molecules listed.
1. Cc1cc(C)cc(-c2ccc(C(=O)c3cc(=O)n(O)c(=O)[nH]3)cc2)c1
2. CCOCn1c(C(C#N)c2ccc(-c3ccccc3)cc2)cc(=O)n(O)c1=O (stereo unspecified)
3. O=C(c1ccc(-c2ccc(F)cc2)cc1)c1cc(=O)n(O)c(=O)[nH]1

OUT:
< 5.00
< 5.00
< 5.00

Record pIC50 per entry; entries follow.
1. Cc1cc(-c2ccc(C(=O)c3cc(=O)n(O)c(=O)[nH]3)cc2)ccc1F
2. O=C(c1ccc(-c2ccc(Cl)c(F)c2)cc1)c1cc(=O)n(O)c(=O)[nH]1
3. COc1ccc(-c2ccc(C(=O)c3cc(=O)n(O)c(=O)[nH]3)cc2)cc1

OUT:
5.08
< 5.00
5.23
